system_name: UniProt:O53638
Sequence (O53638 32-251 limits assumed): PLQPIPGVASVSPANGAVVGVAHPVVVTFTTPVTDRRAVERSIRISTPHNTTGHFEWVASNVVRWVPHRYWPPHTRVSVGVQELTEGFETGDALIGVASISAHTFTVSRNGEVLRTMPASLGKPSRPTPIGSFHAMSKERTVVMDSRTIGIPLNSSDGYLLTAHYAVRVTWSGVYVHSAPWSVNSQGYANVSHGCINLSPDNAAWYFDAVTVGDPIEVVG
test_description: Formation of enzyme-drug adducts between LdtMt1 and β-lactams (electrospray mass spectrometry)
Format: binding
run_parameters: LdtMt1 12.5 μM, β-lactam 125 μM, 1 h at 37° C.
measured_attribute: formation of adduct with LdtMt1 (in words)

smiles_notation	system_name	readout_value
C[C@@H](O)[C@H]1C(=O)N2C(C(=O)O)=C(S[C@@H]3CN[C@H](C(=O)Nc4cccc(C(=O)O)c4)C3)[C@H](C)[C@H]12	UniProt:O53638	detected
CC1(C)S[C@@H]2[C@H](NC(=O)[C@H](N)c3ccccc3)C(=O)N2[C@H]1C(=O)O	UniProt:O53638	No adduct was detected
C[C@@H](O)[C@H]1C(=O)N2C(C(=O)O)=C(S[C@@H]3CN[C@H](C(=O)N(C)C)C3)[C@H](C)[C@H]12	UniProt:O53638	detected
CO/N=C(\C(=O)N[C@@H]1C(=O)N2C(C(=O)O)=C(CSc3nc(=O)c(=O)[nH]n3C)CS[C@H]12)c1csc(N)n1	UniProt:O53638	No adduct was detected

Numbers sourced from patent US8258127B2.
